Source: the array DNA melting data of Ke et al. (doi:10.1101/2024.01.08.574731)

Reported Tm values for the following sequences.
- measurement description: melting temperature; fluorescence melt of hairpins on a sequencing array, two-state fit, raised by 9.35 °C to match UV melts
- experimental context: sodium 0.088 M
Give the number; °C is assumed, so skip it.

Tm for GCATTAGGAAACCAATGC (((((.(....).))))) ?
39.6

Now consider GATCCGTAGACGGATC ((((((....)))))) and answer again.
58.2

Now consider GCTCCCGAAAGGGATAGC ((((((....)))..))) and answer again.
48.4

###

- measurement description: folding enthalpy; higher = less favourable; fluorescence melt of hairpins on a sequencing array, two-state fit
- experimental context: sodium 0.088 M
property measured: folding enthalpy (kcal/mol)
Give the number; kcal/mol is assumed, so skip it.

Please review the following examples before continuing.
GCATTGCGAAAGCCAGGC ((.(.((....)).).)); -17.6
GGCTGTCGAAAGACCGCC (((.(((....))).))); -36.6
GGCGATGGAAACATTGCC (((.(((....))).))); -47.2
GGTTCAGGAAACTGAACC (((((((....))))))); -41.4
GATCTCACGTGAGATC ((((((....)))))); -54.2

folding enthalpy for GGATTTCGAAAGAATCC (((.(((....)))))) ?
-28.8

Now consider GTGCACGAAAGTGATCAC ((((((....)))..))) and answer again.
-12.7

Now consider GATCGCAAAAGCGATC ((((((....)))))) and answer again.
-29.1

Now consider CGTTTGCGGAAACGCACG (((..(((....)))))) and answer again.
-10.4

Now consider GAGTGCGAAAGCATCCTC ((((((....)))..))) and answer again.
-10.2

Now consider GAGACTGGAAACAGTTTC ((.((((....)))).)) and answer again.
-29.6

Now consider GATCATCTACATGATC ((((((....)))))) and answer again.
-38.5

Now consider GATATGGCGAAAGCCATC (((..(((....)))))) and answer again.
-7.03

Now consider GCTCACCGAAAGGTAGC (((.(((....)))))) and answer again.
-22.4

Now consider GTACCTCGAAAGAGCTAC (((.(((....))).))) and answer again.
-11.1

###

- measurement description: folding enthalpy; higher = less favourable; fluorescence melt of hairpins on a sequencing array, two-state fit
- experimental context: sodium 0.088 M
property measured: folding enthalpy (kcal/mol)
Give the number; kcal/mol is assumed, so skip it.

Please review the following examples before continuing.
GAACACGAAAGTGAATTC ((((((....)))..))); -13.3
GATCAGGACCTGATC ((((((...)))))); -40.4
GATCAGTGAGCTGATC ((((((....)))))); -36.1

folding enthalpy for GCACCGCGAAAGCGAGGC ((..(((....)))..)) ?
-14.6

Now consider GCCGAGCGAAAGCGTGGC (((..((....))..))) and answer again.
-25.4

Now consider GACCGCGAAAGCGCGTC ((((((....))).))) and answer again.
-21

Now consider GATCTAGGTGTAGATC ((((((....)))))) and answer again.
-31

Now consider GATCTTGTCAAGATC ((((((...)))))) and answer again.
-34.2

Now consider GAGGACGAAAGTCGACTC ((((((....)))..))) and answer again.
-14.9

###

- measurement description: melting temperature; fluorescence melt of hairpins on a sequencing array, two-state fit, raised by 9.35 °C to match UV melts
- experimental context: sodium 0.088 M
Assign class by Tm: not lower than 40 °C means 1; lower than 40 °C means 0.

The examples below pair each entry with its known result.
GTGCATCGAAAGATCCAC (((.(((....))).))); 0
GCTGTCGGAAACGGCAGC ((((.((....)).)))); 1

Reported Tm reaches at least 40 °C for GATCTATGGCTAGATC ((((((....)))))) ?
0

Now consider GCGCTGGGAAACCAACGC (((.(((....))).))) and answer again.
1

Now consider GGCCATGGAAACATGGTC (.(((((....))))).) and answer again.
1

Now consider GATCTGCGAAAGCAAATC (((.(((....))).))) and answer again.
0

Now consider GCAGCCGAAAGGCGTGC ((((((....))).))) and answer again.
1

Now consider GTCCACGCGAAAGCGGAC (((..(((....)))))) and answer again.
1

###

- measurement description: folding enthalpy; higher = less favourable; fluorescence melt of hairpins on a sequencing array, two-state fit
- experimental context: sodium 0.088 M
Reported folding enthalpy values for the following sequences.
Give the number; kcal/mol is assumed, so skip it.

Please review the following examples before continuing.
GCCTTTGAAAAAAGGC ((((((....)))))); -32.6
GCTGATGGAAACATCAAC (.(((((....))))).); -21
GGCACGGGAAACCATGCC ((((.((....)).)))); -30.5
GATGCCGAAAGGCCGATC ((((((....)))..))); -10.3
GCAAAGTCGAAAGACTGC (((..(((....)))))); -19.5
TCGGTGAAAACCGA (((((....))))); -17.7
GATCCATAGCTGGATC ((((((....)))))); -33.4
GTATACGAAAGTATCTAC ((((((....)))..))); -18.6
GGGTACGAAAGTATCCC ((((((....))).))); -37.3
GCAGTGCGAAAGCCATGC (((..((....))..))); -16.4

Now let's try a different one.
folding enthalpy for GCGTTCAAACGC ((((....)))) ?
-24.5

###

Reported folding enthalpy values for the following sequences.
- measurement description: folding enthalpy; higher = less favourable; fluorescence melt of hairpins on a sequencing array, two-state fit
- experimental context: sodium 0.088 M
Give the number; kcal/mol is assumed, so skip it.

Please review the following examples before continuing.
GCGCAGGCGAAAGCCCGC (((..(((....)))))); -16.7
GGTGGCGAAAGCCTACC ((((((....))).))); -17.1

folding enthalpy for GGGTACGCGAAAGCGCCC (((..(((....)))))) ?
-16.3

###

- measurement description: folding enthalpy; higher = less favourable; fluorescence melt of hairpins on a sequencing array, two-state fit
- experimental context: sodium 0.088 M
property measured: folding enthalpy (kcal/mol)
Give the number; kcal/mol is assumed, so skip it.

Please review the following examples before continuing.
GCGTTGGGAAACTAACGC (((((.(....).))))); -47.8
GTTGTGCGAAAGCAGAAC (((.(((....))).))); -30.9
GGTCCTGGAAACAGGACC (((((((....))))))); -30.9
GCGAGCCTTCGC ((((....)))); -31
GTAGTTGGAAACAGCTAC ((((.((....)).)))); -29.4

folding enthalpy for GGACACGAAAGTGAGTCC ((((((....)))..))) ?
-21

Now consider GATCCTAGATAGGATC ((((((....)))))) and answer again.
-36.1

Now consider GCTATGTCGAAAGACAGC (((..(((....)))))) and answer again.
-14

Now consider GGGAATCCGAAAGGACCC (((..(((....)))))) and answer again.
-18.1

Now consider GCGATAATTCGC ((((....)))) and answer again.
-23.5

###

- measurement description: folding enthalpy; higher = less favourable; fluorescence melt of hairpins on a sequencing array, two-state fit
- experimental context: sodium 0.088 M
Reported folding enthalpy values for the following sequences.
Give the number; kJ/mol is assumed, so skip it.

GATAGGGAAACCTATC ((((((....)))))); -145
GGTTCCGGAAACGGAATC (.(((((....))))).); -100
GCTCCCGAAAGGGCTAGC ((((((....)))..))); -53.4
GAGTCACGAAAGTGCTC (((.(((....)))))); -99.6
GTAATGGAAACATTAC ((((((....)))))); -133

folding enthalpy for GCGAACGGAAACATTCGC (((((.(....).))))) ?
-137

Now consider GCCGCCGAAAGGCGTGGC ((((((....)))..))) and answer again.
-52.6

Now consider GATCAGTAGCTGATC ((((((...)))))) and answer again.
-150

###

Reported folding enthalpy values for the following sequences.
- measurement description: folding enthalpy; higher = less favourable; fluorescence melt of hairpins on a sequencing array, two-state fit
- experimental context: sodium 0.088 M
Param answer (str): number followed by unit.

Please review the following examples before continuing.
GTTCGTGGAAACGTGAAC ((((..(....)..)))); -15.3 kcal/mol
GGCATTCGAAAGAAAGCC (((.(((....))).))); -40.4 kcal/mol

folding enthalpy for GTAAGCGGAAACGCCTAC (((.(((....))).))) ?
-15.8 kcal/mol
